Origin of measurements: ChEMBL document CHEMBL1154840

tested on: Hepacivirus hominis; test: Inhibition of HCV […] by quantitative RT-PCR
So basically, if MIC comes in under 0.2 µg/mL it's T, and if it's 0.2 µg/mL or more it's F.

Some solved cases for reference:
CN(C)/C=C/C(=O)c1nn(-c2ccccc2)cc1C(=O)c1nn(-c2ccccc2)cc1C(=O)c1ccccc1 ... F
CN(C)/C=C/C(=O)c1nn(-c2ccccc2)cc1C(=O)c1nn(-c2ccc(Cl)cc2)cc1C(=O)c1ccccc1 ... F
Cc1ccc(-n2cc(C(=O)c3ccccc3)c(C(=O)/C=C/N(C)C)n2)cc1 ... T
CC(=O)c1nn(-c2ccccc2)cc1C(=O)c1nn(-c2ccc([N+](=O)[O-])cc2)cc1C(=O)c1ccccc1 ... T
CC(=O)c1nn(-c2ccc([N+](=O)[O-])cc2)cc1C(=O)c1ccccc1 ... T
CC(=O)c1nn(-c2ccccc2)cc1C(=O)c1nn(-c2ccccc2)cc1C(=O)c1nn(-c2ccccc2)cc1C(=O)c1ccccc1 ... T
CC(=O)c1nn(-c2ccc(C)cc2)cc1C(=O)c1ccccc1 ... T
CC(=O)c1nn(-c2ccccc2)cc1C(=O)c1nn(-c2ccccc2)cc1C(=O)c1nn(-c2ccc(Cl)cc2)cc1C(=O)c1ccccc1 ... T
CC(=O)c1nn(-c2ccccc2)cc1C(=O)c1nn(-c2ccccc2)cc1C(=O)c1nn(-c2ccc(C)cc2)cc1C(=O)c1ccccc1 ... T

In the following, a different compound is considered.
Task: Is it true that MIC reported for CN(C)/C=C/C(=O)c1nn(-c2ccccc2)cc1C(=O)c1ccccc1 is less than 0.2 µg/mL?
Result: F

###

tested on: Hepacivirus hominis; assay: Inhibition of HCV […] by quantitative RT-PCR
Some compounds, each annotated with its measured MIC.
Give the value, in units of µg/mL, as a plain number.

Lab note: CC(=O)c1nn(-c2ccc(Cl)cc2)cc1C(=O)c1ccccc1 gave MIC of 0.161

Lab note: CC(=O)c1nn(-c2ccccc2)cc1C(=O)c1ccccc1 gave MIC of 0.162

Lab note: CC(=O)c1nn(-c2ccccc2)cc1C(=O)c1nn(-c2ccc(Cl)cc2)cc1C(=O)c1ccccc1 gave MIC of 0.147

Lab note: CC(=O)c1nn(-c2ccccc2)cc1C(=O)c1nn(-c2ccc(C)cc2)cc1C(=O)c1ccccc1 gave MIC of 0.322

Lab note: Cc1ccc(-n2cc(C(=O)c3ccccc3)c(C(=O)c3cn(-c4ccccc4)nc3C(=O)/C=C/N(C)C)n2)cc1 gave MIC of 0.181

###

biological target: DNA topoisomerase 2-alpha (Mus musculus); experiment: Inhibition of mouse DNA topoisomerase 2 assessed as relaxation of supercoiled pBR322 plasmid DNA after 1 hr by electrophoresis relative to etoposide
observed.property: Ratio
Quick one: just the number, no unit, thanks!

Recorded results for 3 compounds are shown here.
CC(=O)c1nn(-c2ccc(C)cc2)cc1C(=O)c1ccccc1 ... 189
Cc1ccc(-n2cc(C(=O)c3ccccc3)c(C(=O)c3cn(-c4ccccc4)nc3C(=O)/C=C/N(C)C)n2)cc1 ... 150
CN(C)/C=C/C(=O)c1nn(-c2ccccc2)cc1C(=O)c1nn(-c2ccc(Cl)cc2)cc1C(=O)c1ccccc1 ... 37.9

Lab note: CN(C)/C=C/C(=O)c1nn(-c2ccccc2)cc1C(=O)c1nn(-c2ccccc2)cc1C(=O)c1ccccc1 gave Ratio of 143
